experiment: Pharmacokinetic experiment in rats; format: in vivo, Sprague-Dawley rats; settings: male, Sprague-Dawley, plasma; rat, IV 0.5 mg/kg single dose
half-life by entry:
Please reply with the bare figure in h and do not write the unit itself.

[
  {
    "compound": "[2H]C([2H])([2H])Oc1cc(N2CCOCC2)c(NC(=O)C=C)cc1Nc1nccc(-n2cc(CN(C)C)c(-c3ccccc3)n2)n1",
    "half-life, h": 3.56
  }
]

Recorded half-life of C=CC(=O)Nc1cc(Nc2nccc(-n3cc(CN(C)C)c(-c4ccccc4)n3)n2)c(OC)cc1N1CCOCC1 [Compound T-0, reference compound] , please.
3.78

* * *

test: Pharmacokinetic experiment in rats; type: in vivo, Sprague-Dawley rats; conditions: male, Sprague-Dawley, plasma; rat, IV 0.5 mg/kg single dose; read-out: Vz—pred
measured parameter: Vd (L/kg)
Please reply with the bare figure in L/kg and do not write the unit itself.

[
  {
    "compound": "[2H]C([2H])([2H])Oc1cc(N2CCOCC2)c(NC(=O)C=C)cc1Nc1nccc(-n2cc(CN(C)C)c(-c3ccccc3)n2)n1",
    "uom": "L/kg",
    "Vd": 5.71
  }
]

Recorded Vd of C=CC(=O)Nc1cc(Nc2nccc(-n3cc(CN(C)C)c(-c4ccccc4)n3)n2)c(OC)cc1N1CCOCC1 [Compound T-0, reference compound] , please.
5.73

* * *

clearance by entry:
test: Pharmacokinetic experiment in rats; format: in vivo, Sprague-Dawley rats; settings: male, Sprague-Dawley, plasma; rat, IV 0.5 mg/kg single dose; read-out: Cl—pred (converted)
Please reply with the bare figure in L/h/kg and do not write the unit itself.

[
  {
    "compound": "[2H]C([2H])([2H])Oc1cc(N2CCOCC2)c(NC(=O)C=C)cc1Nc1nccc(-n2cc(CN(C)C)c(-c3ccccc3)n2)n1 [Compound T-3]",
    "measured parameter": "clearance",
    "uom": "L/h/kg",
    "observed result": 1.11
  }
]

Recorded clearance of C=CC(=O)Nc1cc(Nc2nccc(-n3cc(CN(C)C)c(-c4ccccc4)n3)n2)c(OC)cc1N1CCOCC1 [Compound T-0, reference compound] , please.
1.05

* * *

test: Pharmacokinetic experiment in rats; type: in vivo, Sprague-Dawley rats; conditions: male, Sprague-Dawley, plasma; rat, PO 10 mg/kg single dose
Tmax by entry:
Please reply with the bare figure in h and do not write the unit itself.

[
  {
    "compound": "C=CC(=O)Nc1cc(Nc2nccc(-n3cc(CN(C)C)c(-c4ccccc4)n3)n2)c(OC)cc1N1CCOCC1 [Compound T-0, reference compound]",
    "uom": "h",
    "Tmax": 1.33
  }
]

API: the following record is the query input.
Recorded Tmax of [2H]C([2H])([2H])Oc1cc(N2CCOCC2)c(NC(=O)C=C)cc1Nc1nccc(-n2cc(CN(C)C)c(-c3ccccc3)n2)n1 [Compound T-3] , please.
4

* * *

experiment: Pharmacokinetic experiment in rats; assay type: in vivo, Sprague-Dawley rats; conditions: male, Sprague-Dawley, plasma; rat, IV 0.5 mg/kg single dose; read-out: AUCINF—pred
AUC(0-inf) by entry:
Please reply with the bare figure in ng·h/mL and do not write the unit itself.

[
  {
    "compound": "[2H]C([2H])([2H])Oc1cc(N2CCOCC2)c(NC(=O)C=C)cc1Nc1nccc(-n2cc(CN(C)C)c(-c3ccccc3)n2)n1",
    "measured parameter": "AUC(0-inf)",
    "observed result": 456
  }
]

API: the following record is the query input.
Recorded AUC(0-inf) of C=CC(=O)Nc1cc(Nc2nccc(-n3cc(CN(C)C)c(-c4ccccc4)n3)n2)c(OC)cc1N1CCOCC1 [Compound T-0, reference compound] , please.
498

These data points were gathered from patent US11267810B2.
